# credit: paper PMC4898653

# system_under_test: T1, mesotrypsin (Homo sapiens, UniProt P35030)
# T1 chain: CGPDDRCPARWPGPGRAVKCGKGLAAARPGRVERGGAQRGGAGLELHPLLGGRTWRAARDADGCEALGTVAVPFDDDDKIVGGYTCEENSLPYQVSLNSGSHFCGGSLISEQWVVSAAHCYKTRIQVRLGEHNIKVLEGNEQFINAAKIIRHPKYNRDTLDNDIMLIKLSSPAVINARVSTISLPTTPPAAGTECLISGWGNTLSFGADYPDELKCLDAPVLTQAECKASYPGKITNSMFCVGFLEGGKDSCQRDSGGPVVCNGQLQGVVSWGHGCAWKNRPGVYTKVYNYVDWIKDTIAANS
# assay_explanation: competitive inhibition of Z-GPR-pNA cleavage
assay_readout: pKi
Scale for pKi: -log10 of concentration given in mol/L; no unit attached.

Inquiry: Dear colleague, I am looking for the recorded pKi of the following binder: APPI Kunitz domain (protein) VREVCSEQAETGPCRAMISRWYFDVTEGKCAPFFYGGCGGNRNNFDTEEYCMAVCGSA
Reply text: 6.88
